Below, IC50 values reported for Prostaglandin G/H synthase 1 (Ovis aries) across several publications.
Measured attribute: IC50 (µM)

Recorded IC50, per entry:
- C/C(=N\NC(N)=O)c1nnn(-c2ccc(S(N)(=O)=O)cc2)c1C: 5.9
- Cc1c(-c2nn(-c3ccccc3)cc2/C=N/O)nnn1-c1ccc(Cl)cc1: 12.9

I = Cc1nc(-c2ccccc2)sc1-c1ccnn1-c1ccc(S(C)(=O)=O)cc1
II = O=C(/C=C/c1ccc(O)c(O)c1)OC1CC(O)(C(=O)O)CC(OC(=O)/C=C/c2ccc(O)c(O)c2)C1O (centres undefined)
III = CCc1ccc2c(n1)Oc1ccc(C(C)C(=O)O)cc1C2 (centres undefined)
Exercise: Task for the reader: rank each entry by its IC50, from the minimum upward. List labels; respect the requested ordering.
Key: III, II, I
(III: 0.85 µM, II: 4.96 µM, I: 10.3 µM)

###

Subject of test: Prostaglandin G/H synthase 1 (Ovis aries, UniProt P05979)
Sequence (P05979 whole entry): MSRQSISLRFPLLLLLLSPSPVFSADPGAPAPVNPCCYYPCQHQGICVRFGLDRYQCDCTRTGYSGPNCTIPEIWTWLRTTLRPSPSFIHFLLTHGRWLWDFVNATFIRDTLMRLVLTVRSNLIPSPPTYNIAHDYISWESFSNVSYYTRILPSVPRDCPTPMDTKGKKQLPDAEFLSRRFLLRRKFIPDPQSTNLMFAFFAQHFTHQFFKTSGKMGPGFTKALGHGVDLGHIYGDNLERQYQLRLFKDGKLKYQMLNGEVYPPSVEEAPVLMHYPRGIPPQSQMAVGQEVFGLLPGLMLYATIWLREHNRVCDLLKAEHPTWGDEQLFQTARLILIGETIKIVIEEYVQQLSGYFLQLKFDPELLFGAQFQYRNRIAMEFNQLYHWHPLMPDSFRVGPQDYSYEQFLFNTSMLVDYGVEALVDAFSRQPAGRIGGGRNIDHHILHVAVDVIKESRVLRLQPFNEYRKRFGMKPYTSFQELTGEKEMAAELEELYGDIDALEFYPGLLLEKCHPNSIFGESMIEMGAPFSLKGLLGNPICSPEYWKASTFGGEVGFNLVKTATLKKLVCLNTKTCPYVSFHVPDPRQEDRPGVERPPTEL
Below, IC50 values reported for Prostaglandin G/H synthase 1 (Ovis aries, UniProt P05979) across several publications.
Measured attribute: IC50 (µM)

• CCc1cc(-c2ccccc2)c(-c2ccc(S(C)(=O)=O)cc2)c(=O)o1 = 8

P = C(=N\n1cnnc1)/c1cn(Cc2ccccc2)c2ccccc12
Q = CSc1ccc(-c2cscc2-c2ccc(SC)cc2)cc1
R = O=c1cc(-c2ccccc2)oc2cc(O)cc(O)c12
Exercise: Hey, quick one: sort these by IC50, largest value first please. List labels; respect the requested ordering.
Key: R, Q, P
(R: 39.3 µM, Q: 15 µM, P: 9.21 µM)

###

Below, pIC50 values reported for Prostaglandin G/H synthase 1 (Ovis aries, UniProt P05979) across several publications.
pIC50: −log10 of the molar value.
Measured attribute: pIC50

I = NS(=O)(=O)c1ccc(N2C(=O)CC(CC(=O)c3ccc(Cl)cc3)C2=O)cc1 (stereo not given)
II = O=C1OCC(c2ccc(-c3nn[nH]n3)cc2)=C1c1ccccc1
III = C/C(=N\Nc1nc(-c2ccc(Cl)cc2)cs1)c1nnn(-c2ccc(C(=O)O)cc2)c1C
IV = Cc1c(CC(=O)O)c2ccccc2n1C(=O)c1ccc(Cl)cc1
Exercise: From the items above, give an ordering by pIC50 that starts at the lowest reported number. List labels; respect the requested ordering.
Key: I, III, IV, II
(I: 4.16, III: 4.96, IV: 8.00, II: 8.42)

1 = CC(C)Cc1ccc(C(C)C(=O)n2c3ccccc3c(=O)c3ccccc32)cc1 (stereo not given)
2 = CS(=O)(=O)c1ccc(C2SCCC(=O)N2Cc2ccccc2)cc1 (stereo not given)
Exercise: pIC50 comparison. Which is larger, 1 or 2 ? Reply briefly: the label of your chosen item.
Key: 2
(2: 4.77, 1: 4.29)
